Recorded values, source patent US7528136B2.

molecular target: recombinant human NK3 receptor (Homo sapiens); experiment: [3H]SR142801 competition binding assay; conditions: [3H]SR142801, membranes from HEK293 cells transiently expressing hNK3; read-out: Data (hNK-3 receptor affinity)
Sequence (P29371 whole entry): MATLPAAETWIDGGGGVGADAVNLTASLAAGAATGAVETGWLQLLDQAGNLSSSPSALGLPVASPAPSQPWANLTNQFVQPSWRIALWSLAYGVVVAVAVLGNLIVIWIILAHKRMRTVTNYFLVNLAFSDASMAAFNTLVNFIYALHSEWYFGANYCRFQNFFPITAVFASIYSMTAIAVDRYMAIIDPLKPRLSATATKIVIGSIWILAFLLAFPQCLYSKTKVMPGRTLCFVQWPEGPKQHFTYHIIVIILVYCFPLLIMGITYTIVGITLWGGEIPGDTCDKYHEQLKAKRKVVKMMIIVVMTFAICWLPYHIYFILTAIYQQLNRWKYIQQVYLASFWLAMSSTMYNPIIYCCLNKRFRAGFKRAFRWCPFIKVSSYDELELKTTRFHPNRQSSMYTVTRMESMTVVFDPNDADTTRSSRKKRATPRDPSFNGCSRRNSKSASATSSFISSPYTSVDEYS
quantity-kind: Ki (nM)
Response body: numeric value in nM, unit text excluded.

[Q] Ki lookup needed for O=C([C@@H]1C[C@H](NCc2ccc(F)cc2F)CN1Cc1ccccc1)N1CCN(c2cccc(C(F)(F)F)c2)CC1 , thanks.
[A] 37.6

[Q] Can you look up the measured Ki of CN(Cc1cc(C(F)(F)F)cc(C(F)(F)F)c1)[C@H]1C[C@@H](C(=O)N2CCN(c3cccc(C(F)(F)F)c3)CC2)N(Cc2ccccc2)C1 for me?
[A] 39

[Q] Entry O=C([C@@H]1C[C@H](NCc2ccc(F)cc2F)CN1Cc1ccccc1)N1CCN(c2ccccc2Cl)CC1 has what Ki?
[A] 56.7

[Q] What value of Ki has been reported for the following molecule? N#Cc1ccccc1N1CCN(C(=O)[C@@H]2C[C@H](NCc3cccc(Cl)c3)CN2Cc2ccccc2)CC1
[A] 71

[Q] I would be grateful if you could share the reported Ki for O=C([C@@H]1C[C@@H](NCc2ccc(F)cc2F)CN1Cc1ccccc1)N1CCN(c2cccc(C(F)(F)F)c2)CC1 .
[A] 52

[Q] Given N#Cc1ccccc1N1CCN(C(=O)[C@@H]2C[C@H](NCc3ccccc3C(F)(F)F)CN2Cc2ccccc2)CC1 , state its recorded Ki.
[A] 94.8

[Q] What measured Ki goes with N#Cc1ccccc1N1CCN(C(=O)[C@@H]2C[C@H](NCc3cccc(Cl)c3F)CN2Cc2ccccc2)CC1 ?
[A] 48

[Q] Recorded Ki for N#Cc1ccccc1N1CCN(C(=O)[C@@H]2C[C@H](NCc3cc(C(F)(F)F)ccc3Cl)CN2Cc2ccccc2)CC1 , please?
[A] 58

[Q] Bench note: what Ki did N#Cc1ccccc1N1CCN(C(=O)C2CC(NCc3ccc(F)cc3F)CN2Cc2cccc(F)c2)CC1 (stereo not shown) show?
[A] 47

[Q] Fill blank: measured Ki of the molecule N#Cc1ccccc1N1CCN(C(=O)[C@@H]2C[C@H](NCc3ccc(Cl)c(Cl)c3)CN2Cc2ccccc2)CC1 is ____.
[A] 29
